System: biosynthesis of cholesterol
EXPERIMENTAL DETAILS: CSI screen: inhibition of cholesterol biosynthesis (14C-acetate incorporation into nonsaponifiable lipid by rat liver homogenate)
Assay type: biochemical
CONDITION SET: 50% inhibition of sterol synthesis over a one-hour period
READOUT TYPE: pIC50
pIC50 is defined as minus the log10 of a concentration measured in mol/L.

Problem: What pIC50 value was documented for this compound, C=C1CC2(C)CC1C(c1ccccc1)=C2/C=C/[C@@H]1C[C@@H](O)CC(=O)O1 (relative stereo) ?
Solution: 6.36
